growth values for the compounds below.
# System: SNB-19 CNS
# assay_explanation: NCI-60 one-dose screen, 48 h (100 = growth as untreated, 0 = no growth, -100 = all killed)
# experimental_conditions: 10 µM
About 83,000 compounds went through this panel and 20% of them were active in at least one assay; those are over-represented in the sample as a whole.
Just the number please, in %, no unit attached.

Reference set, count: 3
compound: COc1ccc(/C(C#N)=C2C=C/C(=N/O)c3ccccc3\2)cc1
target_of_assay: SNB-19 CNS
growth / %: 61.7
//
compound: CCOC(=O)C(C#N)Cc1ccccc1 (configuration not stated)
target_of_assay: SNB-19 CNS
growth / %: 100
//
compound: NC(C(=O)O)C(O)c1ccco1 (configuration not stated)
target_of_assay: SNB-19 CNS
growth / %: 114

Summary: CC1(C)N=C(N)N=C(N)N1c1ccc(Cl)cc1 , SNB-19 CNS, growth = 58

Summary: CCCC(C)OCC(=O)O (configuration not stated) , SNB-19 CNS, growth = 100

Summary: CCOC(=O)C(CCC(C)C)C(=O)OCC , SNB-19 CNS, growth = 109

Summary: Cc1cc(N)c(S(=O)(=O)O)c(N)c1 , SNB-19 CNS, growth = 90.7
